# method_description: Toxicity liver stage against HepG2, at 10uM
# Assay type: cell-based
# Design: test concentration 10 uM, cell line HepG2-A16-CD81EGFP
# settings: human, HepG2-A16-CD81EGFP cells; read-out: INHIBITION
measurement_kind: cytotoxicity at 10 µM (%)

>>> print(df.to_string())
                                    molecule       measurement_kind  measured_value
 0  CCCc1ccc(S(=O)(=O)NC(=O)CCC2CCCO2)cc1 (stereo not drawn)  cytotoxicity at 10 µM           -25.7
 1  Cn1cc(CN2CCC(F)(F)C3(CCN(c4ncccn4)C3)C2)cn1 (stereo not drawn)  cytotoxicity at 10 µM           -0.58
 2        O=c1c2cnc(N3CCCCC3)nc2ccn1Cc1ccco1  cytotoxicity at 10 µM           -9.69
 3  Cn1ccc(C(=O)NC2CCC23CCN(Cc2ccc(F)cc2)CC3)c1 (stereo not drawn)  cytotoxicity at 10 µM            -147
 4  O=C(CCCNC(=O)C1CC1)Nc1cnn(-c2ccccc2Cl)c1  cytotoxicity at 10 µM           -12.3
 5   CN(C)C(=O)CN1C(=O)CCC12CCN(Cc1ccsc1)CC2  cytotoxicity at 10 µM           -3.13
 6  CC(C)Nc1nc(N2CCCC2)nc2c1CN(S(C)(=O)=O)CC2  cytotoxicity at 10 µM            2.69
 7  Cc1ccc(C(=O)N2CCC(Oc3cccc(C)c3C)CC2)c(=O)[nH]1  cytotoxicity at 10 µM           -6.48
 8  COc1ccc(CN(Cc2cncn2C)CC2CCCO2)cc1OC (stereo not drawn)  cytotoxicity at 10 µM           -3.06
 9  CNC(=O)c1ccc(CN2CCN(C3=NCC(C)(C)S3)CC2)cc1  cytotoxicity at 10 µM            14.3
10  Cn1ccc(C(=O)N2CCCC(Cc3cnc4ccccc4c3)C2)n1 (stereo not drawn)  cytotoxicity at 10 µM           -6.19
11  Cc1ccc(N2CC3(COCCN(Cc4cnn(C)c4)C3)OCC2=O)s1 (stereo not drawn)  cytotoxicity at 10 µM           -5.18
12     CCN(Cc1csc(CS(C)(=O)=O)n1)c1cccc(F)c1  cytotoxicity at 10 µM            7.25
13     CC(C)CN1CCC(C(=O)NCCNC(=O)c2ccoc2)CC1  cytotoxicity at 10 µM           0.335
14  Cc1cc(NC(=O)C2CN(Cc3ccccc3)CCO2)ccn1 (stereo not drawn)  cytotoxicity at 10 µM            54.9
15  O=C(N1CCCC1)N1C[C@H]2CCC[C@@]2(COCc2ccccn2)C1  cytotoxicity at 10 µM            -106
16         CCc1ncc2c(n1)CN(Cc1cn3ccsc3n1)CC2  cytotoxicity at 10 µM           -8.26
17  Cc1cnn(CC2CN(CCCc3nc4ccccc4o3)CCO2)c1 (stereo not drawn)  cytotoxicity at 10 µM           -2.45
18        COc1cc(Oc2ccc(C#N)cn2)ccc1CN1CCCC1  cytotoxicity at 10 µM            32.2
19  Cc1ccc(OCCC(=O)N(C)CC(=O)Nc2cc(C)on2)c(C)c1  cytotoxicity at 10 µM           -16.9
20  O=C(c1ccccn1)N1CCC(S(=O)(=O)c2ccccc2)C1 (stereo not drawn)  cytotoxicity at 10 µM            3.26
21   CC(C)C(=O)NS(=O)(=O)c1ccc2c(c1)N(C)CCC2  cytotoxicity at 10 µM          -0.447
22  CN(Cc1cccs1)C(=O)CNC1CCc2ncnn2C1 (stereo not drawn)  cytotoxicity at 10 µM            3.03
23        CC(C)c1ccc(OCCC(=O)N(C)CC(N)=O)cc1  cytotoxicity at 10 µM            6.77
24  Cc1n[nH]cc1CNCC(c1cccc(F)c1)N(C)C (stereo not drawn)  cytotoxicity at 10 µM         -0.0972
25  CC(C)C1CCCN1C(=O)Nc1ccc(=O)n(C)c1 (stereo not drawn)  cytotoxicity at 10 µM           0.581
26         CCN(C)CCNC(=O)Cc1nc(-c2ccco2)oc1C  cytotoxicity at 10 µM           -12.5
27  C=C(C)COc1cccc(CNC(COC)c2ccnn2C)c1 (stereo not drawn)  cytotoxicity at 10 µM           -3.57
28            CCCC(=O)NCc1cc(Br)c(OC)c(OC)c1  cytotoxicity at 10 µM            1.11
29  Cc1nn(C)c(C)c1CN1CCN(CC2(O)CCCN(C)C2)CC1 (stereo not drawn)  cytotoxicity at 10 µM            9.07
30        CN(C)C(=O)CN1CCn2cc(Cn3cccn3)nc2C1  cytotoxicity at 10 µM            4.96
31  CCC[C@H]1CN(Cc2ccc(N(C)C)nc2)C[C@@H]1NS(=O)(=O)CC  cytotoxicity at 10 µM           -11.9
32           CC(C)c1noc(CN(Cc2cccs2)C2CC2)n1  cytotoxicity at 10 µM           -9.15
33  Cc1nccn1-c1ccc(CNS(=O)(=O)N2CCCC(C)C2)cn1 (stereo not drawn)  cytotoxicity at 10 µM            5.39
34  CC(C)c1nc2cc(NC(=O)c3n[nH]c4c3CCC4)ccc2n1C  cytotoxicity at 10 µM           -5.37
35  CC(OCC1CC1)C(=O)NCc1ccc(Cn2ccnc2)cc1 (stereo not drawn)  cytotoxicity at 10 µM            15.6
36  Cc1nc(-c2ccc(C(=O)O)cc2)cc(C2CCN(C(C)C)C2)n1 (stereo not drawn)  cytotoxicity at 10 µM            6.62
37  COc1ncccc1NC(=O)NCC1CCS(=O)(=O)C1 (stereo not drawn)  cytotoxicity at 10 µM           -9.16
38     c1cnc2c(c1)cc([C@H]1CCCO1)n2CCN1CCCC1  cytotoxicity at 10 µM           0.975
39     COCC(=O)N(C)Cc1nc(N(C)C)ncc1-c1ccncc1  cytotoxicity at 10 µM            2.42
40  CC(=O)N[C@@H]1CN(Cc2ccco2)C[C@H]1c1ccc(C)o1  cytotoxicity at 10 µM           -3.33
41  CC(COc1ccccc1)NCc1nncn1C1CCCCC1 (stereo not drawn)  cytotoxicity at 10 µM           -4.23
42  O=C(C1CC1)N1CCC(Nc2nc(O)cc(-c3ccsc3)n2)CC1  cytotoxicity at 10 µM            5.29
43    CNC(=O)Cc1cc2nccc(-c3c(OC)cccc3OC)n2n1  cytotoxicity at 10 µM           -10.4
44  CN(C)Cc1nnc(C2CCCN(c3cc(C(F)(F)F)ccn3)C2)n1C (stereo not drawn)  cytotoxicity at 10 µM           -11.9
45  COC(=O)[C@H]1CN(C(=O)NC(C)C)CCN1C(=O)c1cccs1  cytotoxicity at 10 µM          -0.832
46  O=C(Nc1ccc(F)cc1)C1CNCCN1C(=O)CCc1cccnc1 (stereo not drawn)  cytotoxicity at 10 µM            2.06
47  CCc1nc(N2CCC3(CC2)[C@H](O)C[C@@H]3O)ncc1C  cytotoxicity at 10 µM            6.02
